I'd appreciate it if you could supply kcat/Km values for the items below.
experiment: Ratio of Kcat to Km for Beta-lactamase GES-5 E104, S170 mutant
Note: unit M⁻¹ s⁻¹ is implicit; provide only the numeric part.

Hello, please tell me recorded kcat/Km for this one: C[C@@H](O)[C@H]1C(=O)N2C(C(=O)O)=C(SCCNC=N)C[C@H]12 [IMIPENEM ANHYDROUS]
260000

# return recorded kcat/Km for input CC(C)(O/N=C(\C(=O)N[C@@H]1C(=O)N2C(C(=O)[O-])=C(C[n+]3ccccc3)CS[C@H]12)c1csc(N)n1)C(=O)O [CEFTAZIDIME]
2000

Write down kcat/Km measured for item CO/N=C(\C(=O)N[C@@H]1C(=O)N2C(C(=O)O)=C(COC(C)=O)CS[C@H]12)c1csc(N)n1 [CEFOTAXIME]
30000

Provide measured kcat/Km value, entry: CC1(C)S[C@@H]2[C@H](NC(=O)Cc3ccccc3)C(=O)N2[C@H]1C(=O)O
320000

Please look at this compound and report its kcat/Km: CO[C@@]1(NC(=O)Cc2cccs2)C(=O)N2C(C(=O)O)=C(COC(N)=O)CS[C@@H]21 [CEFOXITIN]
30000
